system: Staphylococcus aureus; experiment: Antimicrobial activity against vancomycin-insensitive Staphylococcus aureus isolate 9; format: functional
# log10(MIC) values compiled below
Heads up, the numbers here are log10 of MIC in µg/mL units.

Take a look at these entries with their results.
Quick one: log10(MIC) for C[C@@H]1C2OC3(C)CC4(C=CC(=O)C(C)(CCC(=O)Nc5c(O)ccc(C(=O)O)c5O)C24)CC13 (some centres undefined) ?
0.30

Quick one: log10(MIC) for CC12CC34C=CC(=O)C(C)(CCC(=O)Nc5c(O)ccc(C(=O)O)c5O)C3C(O1)[C@@H](Br)C2C4 (some centres undefined) ?
0.90

Quick one: log10(MIC) for C[C@@H]1C2OC3(C)CC4(CC13)C(c1ccccc1)=CC(=O)C(C)(CCC(=O)Nc1c(O)ccc(C(=O)O)c1O)C24 (some centres undefined) ?
0.00

Quick one: log10(MIC) for CC1(CCC(=O)Nc2c(O)ccc(C(=O)O)c2O)C(=O)C=CC23CC4CC(OC4(c4ccccc4)C2)C31 (centres undefined) ?
1.20

Quick one: log10(MIC) for CC12CC34CC1CC(O2)C3C(C)(CCC(=O)Nc1c(O)ccc(C(=O)O)c1O)C(=O)C=C4c1ccccc1 (centres undefined) ?
0.00

Quick one: log10(MIC) for CC12C[C@@]34C=CC(=O)[C@@](C)(CCC(=O)Nc5c(O)ccc(C(=O)O)c5O)C3[C@H](CC1C4)O2 (some centres undefined) [PLATENSIMYCIN] ?
0.30

Quick one: log10(MIC) for CC1=CC(=O)C(C)(CCC(=O)Nc2c(O)ccc(C(=O)O)c2O)C2C3CC4CC12CC4(C)O3 (centres undefined) ?
0.60

In the following, a different compound is considered.
Quick one: log10(MIC) for CC12CC34C=CC(=O)C(C)(CCC(=O)Nc5c(O)ccc(C(=O)O)c5O)C3C(O1)[C@@H](Cl)C2C4 (some centres undefined) ?
0.90
